testMethodNotes: Human HepG2 cell viability assay in 384 well format
Assay type: toxicity, cell-based
Design: dose 125 nL, time 70.5 hour; concentration not given beside the values
testConditions: HepG2 cells, read-out: Inhibition
reportedEndpoint: cytotoxicity at 70.5 h

Record request: cytotoxicity at 70.5 h value, item COCC(=O)N1CCC2(CC1)CCN(Cc1ccccn1)C2=O -0.554%

Please give the measured cytotoxicity at 70.5 h for this molecule: N#CCCN1CCC(=Cc2ccccc2)CC1 -6.02%

Record request: cytotoxicity at 70.5 h value, item CC(=O)N1CCc2[nH]cnc2C12CCN(C(=O)CCn1cccn1)CC2 1.39%

For the molecule shown here, CCN1CCC(NC(=O)CN2CCCC(NS(C)(=O)=O)C2)CC1 (stereo unspecified) , give the reported cytotoxicity at 70.5 h. -10.1%

# cytotoxicity at 70.5 h lookup, item c1cc(-c2nnc([C@H]3CCN(C4CCCCC4)C3)o2)ccn1 -0.595%

For the molecule Cc1[nH]c(=O)sc1S(=O)(=O)N1CCCC1C(=O)NCc1ccsc1 (stereo unspecified) , what cytotoxicity at 70.5 h is on record? -4.24%

###

testMethodNotes: Human HepG2 cell viability assay in 384 well format
Assay type: toxicity, cell-based
Set-up: dose 125 nL, time 70.5 hour; concentration not given beside the values
testConditions: HepG2 cells, read-out: Inhibition
reportedEndpoint: cytotoxicity at 70.5 h (%)
Entry rule: numbers only, all in %.

// query cytotoxicity at 70.5 h value for entry Fc1cnc(N2CCCC3(CN(Cc4ccccc4)CCO3)C2)nc1 (configuration not stated) -4.05

Need cytotoxicity at 70.5 h of COCc1cccc(NC(C(N)=O)c2ccc(Br)cc2)c1 (configuration not stated) , thanks. -9.42

cytotoxicity at 70.5 h for CN(C)C(=O)NCc1cc2n(n1)CCCN(CC1CCCNC1)C2 (configuration not stated) ? 29.9

Query: cytotoxicity at 70.5 h; subject: CC(C)(C)C(=O)NCc1nccn1CCc1ccccc1 -5.7

I would be grateful if you could share the reported cytotoxicity at 70.5 h for CCc1cc(NCCCNS(C)(=O)=O)nc(-c2ccccn2)n1 . -7.43

So what does the record say about cytotoxicity at 70.5 h for CC(=O)Nc1ccc(Oc2ccc(CN3CCCC3)cc2F)cc1 ? -3.88

Returns the measured cytotoxicity at 70.5 h for the input compound. Input: O=C(CN1CCCC(Cn2cncn2)C1)NCCc1cccs1 (configuration not stated) 0.827

Field request: cytotoxicity at 70.5 h | item: c1csc(CN2Cc3[nH]nc(COCC4CC4)c3C2)c1 -8.6

Quick check: cytotoxicity at 70.5 h of CN(Cc1ccoc1)C(=O)C1(Oc2ccc(Cl)cc2)CCNCC1 ? -6.31

// query cytotoxicity at 70.5 h value for entry COc1cccc(CCC2CCCN(C(C)=O)C2)c1 (configuration not stated) -1.99

Item CN1CCN(C(=O)c2cc3c(s2)CCN3C(=O)C2CC2)CC1 has what recorded cytotoxicity at 70.5 h? -1.1

Value lookup for cytotoxicity at 70.5 h; key = NC(=O)c1cc2c(nc1N)CCN(C(=O)C1CCCCC1)C2 7.07

###

testMethodNotes: Human HepG2 cell viability assay in 384 well format
Format: toxicity, cell-based
Parameters: dose 125 nL, time 70.5 hour; concentration not given beside the values
testConditions: HepG2 cells, read-out: Inhibition
reportedEndpoint: cytotoxicity at 70.5 h (%)
Provide the reading as a plain figure in %.

Quick check: cytotoxicity at 70.5 h of Cc1cccc(C(=O)N2CCN(C)CC2)c1NC(=O)c1ccncc1 ? 17.6

Return reported cytotoxicity at 70.5 h; argument: Cc1cc(NS(=O)(=O)c2c[nH]c3ncccc23)no1 0.354

Using the record for O=C(c1cnccn1)N1CC2(CCN(Cc3ccsc3)C2)C1 , report its cytotoxicity at 70.5 h. -4.05

Can you share its cytotoxicity at 70.5 h? I mean this molecule: CC(=O)N1CCC(NC(C)c2cnn(-c3ccc(F)cc3F)c2C)CC1 (stereo unspecified) -5.65

Consider the molecule CC(C)N(C)Cc1cn2c(n1)CN(C(=O)c1ccc[nH]1)CC2 and give its measured cytotoxicity at 70.5 h. -5.19

Query: cytotoxicity at 70.5 h; subject: COC(=O)NC1(C(=O)Nc2ccc(-c3ncc[nH]3)cc2)CCCC1 1.15

Return reported cytotoxicity at 70.5 h; argument: CC(C)COC(=O)N1CC(=O)N(Cc2ccc(Cl)cc2)CC(O)C1 (stereo unspecified) -3.08

Quick one: cytotoxicity at 70.5 h for COCCNC(=O)[C@H]1CN(Cc2csc(C)n2)C[C@H]2OCC[C@@H]12 ? -3.29

So what does the record say about cytotoxicity at 70.5 h for Cn1cc(-c2ncc3c(c2C(=O)O)CCN(CC2CC2)C3)cn1 ? -1.4

Which value of cytotoxicity at 70.5 h has been reported for Cc1ccsc1C(=O)N1CC[C@@H](N(C)C)[C@@H]1Cc1cnn(C)c1 in the records? -11.2

Returns the measured cytotoxicity at 70.5 h for the input molecule. Input: CC(C)N1CCCC2(CCN(C(=O)COCC(F)(F)C(F)F)C2)C1=O (stereo unspecified) -3.34
